assayedSystem: Histamine H2 receptor (Rattus norvegicus) (UniProt P25102)
Sequence (P25102 whole entry, the tested form may be a part): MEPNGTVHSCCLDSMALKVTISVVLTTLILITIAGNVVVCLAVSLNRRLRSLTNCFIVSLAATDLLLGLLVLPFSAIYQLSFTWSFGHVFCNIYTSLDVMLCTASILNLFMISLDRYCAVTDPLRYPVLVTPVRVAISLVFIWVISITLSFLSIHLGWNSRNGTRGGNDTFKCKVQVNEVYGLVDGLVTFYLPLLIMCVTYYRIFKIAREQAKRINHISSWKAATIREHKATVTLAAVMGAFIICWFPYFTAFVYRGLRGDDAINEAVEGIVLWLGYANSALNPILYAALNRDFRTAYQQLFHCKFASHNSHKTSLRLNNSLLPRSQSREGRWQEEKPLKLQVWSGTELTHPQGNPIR
experimentNotes: In vivo antagonist activity against histamine H2-receptor in lumen-perfused stomach of atropinized (1 mg/kg) anesthetized rat gastric secretion at 128 ug/kg; -ve
Assay type: functional, organism-based
Calls of active or inactive are those of the source. The calls are words filed in the database; no cut-off is given here.

{"columns": ["molecule", "Antagonist activity"],
 "data": [
  ["NCCc1cncn1Cc1ccccc1", "inactive"],
  ["NCCc1[nH]cnc1Cc1ccccc1", "inactive"],
  ["NCCc1c[nH]c(Cc2ccccc2)n1", "inactive"],
  ["NCCc1ncn(Cc2ccccc2)c1Cc1ccccc1", "inactive"]
]}
